# credit: patent US20230416363A1

Biological target: T1, human PD-1 expressed on cells (human, UniProt Q15116 25-288)
T1 construct: whole, on cells
T1 sequence (Q15116 25-288): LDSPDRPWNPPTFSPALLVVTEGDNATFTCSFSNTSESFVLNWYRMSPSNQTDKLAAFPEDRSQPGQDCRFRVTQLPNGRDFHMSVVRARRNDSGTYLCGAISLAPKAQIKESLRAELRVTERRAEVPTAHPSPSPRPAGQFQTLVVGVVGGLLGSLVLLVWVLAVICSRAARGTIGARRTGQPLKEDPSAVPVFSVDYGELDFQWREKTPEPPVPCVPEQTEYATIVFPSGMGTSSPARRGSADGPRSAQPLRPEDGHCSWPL
Test: flow cytometry, SEB-activated PBMC donor three
pEC50: −log10 of the molar value.

| binder | pEC50 |
| --- | --- |
| 19B6 (antibody, V domains shown) VH: QVQLVQSGAEVKKPGASVKVSCKASGYTFTGYYMHWVRQAPGQGLEWMGIINPSGGSTSYAQKFQGRVTMTRDTSTSTVYMELSSLRSEDTAVYYCAKTAGYDWLPSGLGMDVWGQGTTVTVSS VL: DIQMTQSPSSLSASVGDRVTITCRASQSINSWLAWYQQKPGKAPKLLIYYASSLQSGVPSRFSGSGSGTDFTLTISSLQPEDFATYYCQQGYSVPLSFGQGTKLEIK | 7.97 |
